Test system: HOP-62
ASSAY PROTOCOL: NCI 60 cell panel SRB screen
Format: cell-based
CONDITION: Homo sapiens; HOP-62, 5 log dose
PARAMETER: GI50 (nM)
Field format: number, assumed nM, no unit text.

Example results:
1. O=C(Nc1ccccc1)Nc1ccc(Oc2nnc(Cl)c3ccccc23)cc1 [Compound 13a]; 2520
2. Cc1nnc(Nc2ccc(NC(=O)Nc3ccc(Cl)cc3)cc2)c2ccccc12 [Compound 6e]; 1810
3. O=C(Nc1ccc(Cl)cc1)Nc1ccc(Oc2nncc3ccccc23)cc1 [Compound 7b]; 1090
4. Clc1ccc(Nc2nnc(COc3ccccc3)c3ccccc23)cc1 [Compound 17a]; 2510

Request: Query: GI50; subject: COc1cccc(NCc2nnc(Nc3ccc(Cl)cc3)c3ccccc23)c1 [Compound 16d]
Result: 2060

Request: Field request: GI50 | item: O=C(Nc1ccc(Cl)cc1)Nc1ccc(Nc2nncc3ccccc23)cc1 [Compound 6b]
Result: 3000

Request: Can you look up the measured GI50 of Clc1ccc(Nc2nnc(CNc3ccccc3)c3ccccc23)cc1 [Compound 16a] for me?
Result: 2860

###

Test system: CCRF-CEM
PARAMETER: GI50
// unit must come after the numeric part

1. Clc1ccc(Nc2nnc(CNc3ccccc3)c3ccccc23)cc1 [Compound 16a]; 3530 nM
2. COc1cccc(NCc2nnc(Nc3ccc(Cl)cc3)c3ccccc23)c1 [Compound 16d]; 2730 nM
3. Clc1ccc(Nc2nnc(COc3ccccc3)c3ccccc23)cc1 [Compound 17a]; 2800 nM

Request: // lookup GI50 | system=CCRF-CEM | key= O=C(Nc1ccc(Cl)cc1)Nc1ccc(Oc2nncc3ccccc23)cc1
Result: 320 nM

Request: State its GI50 on CCRF-CEM: O=C(Nc1ccc(Cl)cc1)Nc1ccc(Nc2nncc3ccccc23)cc1
Result: 2570 nM

Request: Find the measured GI50: item Cc1nnc(Nc2ccc(NC(=O)Nc3ccc(Cl)cc3)cc2)c2ccccc12 , target or system CCRF-CEM.
Result: 2380 nM

Request: API: value(readout= GI50, system= CCRF-CEM, query= O=C(Nc1ccccc1)Nc1ccc(Oc2nnc(Cl)c3ccccc23)cc1 [Compound 13a] )
Result: 4440 nM

###

Tested on: U251
ASSAY PROTOCOL: NCI 60 cell panel SRB screen
Assay type: cell-based
CONDITION: Homo sapiens, U-251; U251, 5 log dose, 48 h; read-out: LC50 (the source's name)
PARAMETER: CC50 (µM)
Please respond with the number in µM and leave the unit unwritten.

1. O=C(Nc1ccccc1)Nc1ccc(Oc2nnc(Cl)c3ccccc23)cc1 [Compound 13a]; 11.4

Request: Find the recorded CC50 belonging to Clc1ccc(Nc2nnc(CNc3ccccc3)c3ccccc23)cc1 [Compound 16a] and report it.
Result: 16.4

Request: Look at this molecule and give its reported CC50. Clc1ccc(Nc2nnc(COc3ccccc3)c3ccccc23)cc1 [Compound 17a]
Result: 19.1

Request: Consider the molecule O=C(Nc1ccc(Cl)cc1)Nc1ccc(Oc2nncc3ccccc23)cc1 and give its measured CC50.
Result: 5.61

Request: Data request, read-out CC50, for Cc1nnc(Nc2ccc(NC(=O)Nc3ccc(Cl)cc3)cc2)c2ccccc12
Result: 7.07

Request: Given the molecule O=C(Nc1ccc(Cl)cc1)Nc1ccc(Nc2nncc3ccccc23)cc1 , what is its reported CC50?
Result: 37.2

###

System: BT-549
ASSAY PROTOCOL: NCI 60 cell panel SRB screen
Assay type: cell-based
CONDITION: Homo sapiens, BT-549
Measured GI50 of individual entries

Request: Bench note: what GI50 did Clc1ccc(Nc2nnc(CNc3ccccc3)c3ccccc23)cc1 [Compound 16a] show?
Result: 2930 nM

Request: Quick one: GI50 for O=C(Nc1ccc(Cl)cc1)Nc1ccc(Oc2nncc3ccccc23)cc1 ?
Result: 2080 nM

Request: Report GI50 for O=C(Nc1ccc(Cl)cc1)Nc1ccc(Nc2nncc3ccccc23)cc1 please.
Result: 2150 nM

Request: Which measured GI50 value corresponds to O=C(Nc1ccccc1)Nc1ccc(Oc2nnc(Cl)c3ccccc23)cc1 [Compound 13a] ?
Result: 3060 nM

Request: Reported GI50, molecule Cc1nnc(Nc2ccc(NC(=O)Nc3ccc(Cl)cc3)cc2)c2ccccc12 : ____
Result: 2210 nM

Request: If you can, please state the reported GI50 value of Clc1ccc(Nc2nnc(COc3ccccc3)c3ccccc23)cc1 [Compound 17a] .
Result: 2050 nM

Request: Please report the recorded GI50 for COc1cccc(NCc2nnc(Nc3ccc(Cl)cc3)c3ccccc23)c1 [Compound 16d] .
Result: 1900 nM

###

System: K-562
ASSAY PROTOCOL: NCI 60 cell panel SRB screen
Format: cell-based
CONDITION: Homo sapiens, K562; K-562, 5 log dose, 48 h; read-out: LC50 (the source's name)
PARAMETER: CC50

Look over these answered cases.
1) Clc1ccc(Nc2nnc(CNc3ccccc3)c3ccccc23)cc1 [Compound 16a]; > 25 µM
2) Cc1nnc(Nc2ccc(NC(=O)Nc3ccc(Cl)cc3)cc2)c2ccccc12; 9.92 µM
3) O=C(Nc1ccc(Cl)cc1)Nc1ccc(Oc2nncc3ccccc23)cc1; > 100 µM
4) O=C(Nc1ccccc1)Nc1ccc(Oc2nnc(Cl)c3ccccc23)cc1 [Compound 13a]; > 25 µM
5) O=C(Nc1ccc(Cl)cc1)Nc1ccc(Nc2nncc3ccccc23)cc1; > 100 µM

Request: For the record Clc1ccc(Nc2nnc(COc3ccccc3)c3ccccc23)cc1 [Compound 17a] , what value of CC50 is listed for K-562?
Result: > 25 µM

Request: Request - read-out CC50 | tested on K-562 | compound COc1cccc(NCc2nnc(Nc3ccc(Cl)cc3)c3ccccc23)c1 [Compound 16d]
Result: > 25 µM

###

TARGET UNDER TEST: VEGFR-2 tyrosine kinase (Homo sapiens, UniProt P35968)
Construct: purchased BPS Bioscience 40301
Sequence (P35968 20-1356): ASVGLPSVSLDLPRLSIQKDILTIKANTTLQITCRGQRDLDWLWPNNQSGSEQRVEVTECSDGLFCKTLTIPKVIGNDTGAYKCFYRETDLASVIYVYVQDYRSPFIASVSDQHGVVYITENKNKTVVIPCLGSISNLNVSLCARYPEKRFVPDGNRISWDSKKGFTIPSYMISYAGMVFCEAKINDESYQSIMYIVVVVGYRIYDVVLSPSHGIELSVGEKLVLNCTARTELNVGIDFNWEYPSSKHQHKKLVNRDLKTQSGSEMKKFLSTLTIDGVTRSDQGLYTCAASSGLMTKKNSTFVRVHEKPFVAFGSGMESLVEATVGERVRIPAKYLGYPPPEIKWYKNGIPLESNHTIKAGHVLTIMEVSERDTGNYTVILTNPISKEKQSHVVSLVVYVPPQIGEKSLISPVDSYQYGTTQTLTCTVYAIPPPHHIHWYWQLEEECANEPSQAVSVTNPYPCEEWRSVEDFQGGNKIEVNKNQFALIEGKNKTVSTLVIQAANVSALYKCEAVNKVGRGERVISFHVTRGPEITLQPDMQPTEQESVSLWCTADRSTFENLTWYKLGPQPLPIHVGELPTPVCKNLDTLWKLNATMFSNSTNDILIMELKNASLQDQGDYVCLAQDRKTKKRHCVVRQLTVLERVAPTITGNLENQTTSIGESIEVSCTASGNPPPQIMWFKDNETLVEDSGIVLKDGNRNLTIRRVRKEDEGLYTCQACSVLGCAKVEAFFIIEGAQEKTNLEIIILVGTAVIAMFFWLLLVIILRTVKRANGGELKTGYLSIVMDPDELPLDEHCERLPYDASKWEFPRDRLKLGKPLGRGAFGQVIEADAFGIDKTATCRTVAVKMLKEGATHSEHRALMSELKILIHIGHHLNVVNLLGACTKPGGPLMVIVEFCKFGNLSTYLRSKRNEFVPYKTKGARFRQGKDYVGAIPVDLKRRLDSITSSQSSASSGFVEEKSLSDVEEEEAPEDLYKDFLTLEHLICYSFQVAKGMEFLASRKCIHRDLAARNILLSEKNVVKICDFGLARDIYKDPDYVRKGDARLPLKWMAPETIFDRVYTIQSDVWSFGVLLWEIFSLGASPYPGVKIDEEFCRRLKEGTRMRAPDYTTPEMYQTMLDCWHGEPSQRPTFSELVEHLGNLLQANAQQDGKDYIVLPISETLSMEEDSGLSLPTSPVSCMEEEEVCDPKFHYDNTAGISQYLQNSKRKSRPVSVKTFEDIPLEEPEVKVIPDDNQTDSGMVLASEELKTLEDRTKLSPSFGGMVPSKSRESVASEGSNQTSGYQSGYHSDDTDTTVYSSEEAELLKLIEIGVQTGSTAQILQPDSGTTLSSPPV
ASSAY PROTOCOL: In vitro VEGFR-2 tyrosine kinase assay (BPS Bioscience)
Assay type: biochemical
CONDITION: read-out: VEGFR-2 % inhibition; 10 μM concentration
Here the recorded inhibition at 10 µM is given for each entry.
Don't forget the unit after the number, please.

Reference set (3 entries):
1. O=C(Nc1ccc(Nc2nncc3ccccc23)cc1)Nc1ccc(Cl)c(C(F)(F)F)c1 [Compound 6c]; 70%
2. O=C(Nc1ccccc1)Nc1ccc(Nc2nnc(Cl)c3ccccc23)cc1 [Compound 12a]; 26%
3. c1ccc(N2CCN(c3nncc4ccccc34)CC2)cc1 [Compound 8b, 1–(4-Phenylpiperazin-1-yl)phthalazine]; 8%

Request: Record request: inhibition at 10 µM value, item Clc1ccc(Nc2nnc(CNc3ccccc3)c3ccccc23)cc1 [Compound 16a]
Result: 47%

###

System: RXF 393
ASSAY PROTOCOL: NCI 60 cell panel SRB screen
Assay type: cell-based
CONDITION: Homo sapiens; RXF 393, 5 log dose, 48 h; read-out: LC50 (the source's name)
PARAMETER: CC50 (µM)
// units = µM; emit number, no label

1) Cc1nnc(Nc2ccc(NC(=O)Nc3ccc(Cl)cc3)cc2)c2ccccc12; 7.84
2) COc1cccc(NCc2nnc(Nc3ccc(Cl)cc3)c3ccccc23)c1 [Compound 16d]; 15.9
3) Clc1ccc(Nc2nnc(COc3ccccc3)c3ccccc23)cc1 [Compound 17a]; 14.4
4) O=C(Nc1ccccc1)Nc1ccc(Oc2nnc(Cl)c3ccccc23)cc1 [Compound 13a]; 14.5

Request: Kindly state the measured CC50 obtained for O=C(Nc1ccc(Cl)cc1)Nc1ccc(Oc2nncc3ccccc23)cc1 with RXF 393.
Result: 3.74

###

Listing: inhibition at 10 µM of selected compounds
TARGET UNDER TEST: VEGFR-2 tyrosine kinase (Homo sapiens, UniProt P35968)
Construct: purchased BPS Bioscience 40301
ASSAY PROTOCOL: In vitro VEGFR-2 tyrosine kinase assay (BPS Bioscience)
Format: biochemical
CONDITION: read-out: VEGFR-2 % inhibition; 10 μM concentration
# output: number + unit

1. Cc1cccc(NCc2nnc(Nc3ccc(Cl)cc3)c3ccccc23)c1 [Compound 16c]; 19%
2. Clc1ccc(Nc2nnc(COc3ccccc3)c3ccccc23)cc1 [Compound 17a]; 31%

Request: Would you mind telling me what inhibition at 10 µM value was observed for Cc1nnc(Oc2ccc(NC(=O)Nc3ccccc3)cc2)c2ccccc12 ?
Result: 10%

Request: Request the reported inhibition at 10 µM associated with O=C(Nc1ccc(Nc2nncc3ccccc23)cc1)c1ccc(Cl)cc1
Result: 8%

###

Listed here: items and their measured GI50.
Tested on: PC-3
A number alone suffices; assume nM.

See these solved cases before continuing.
1. O=C(Nc1ccccc1)Nc1ccc(Oc2nnc(Cl)c3ccccc23)cc1 [Compound 13a]; 3260
2. Cc1nnc(Nc2ccc(NC(=O)Nc3ccc(Cl)cc3)cc2)c2ccccc12 [Compound 6e]; 3490
3. O=C(Nc1ccc(Cl)cc1)Nc1ccc(Oc2nncc3ccccc23)cc1 [Compound 7b]; 1640
4. COc1cccc(NCc2nnc(Nc3ccc(Cl)cc3)c3ccccc23)c1 [Compound 16d]; 1190

Request: State its GI50 on PC-3: Clc1ccc(Nc2nnc(CNc3ccccc3)c3ccccc23)cc1 [Compound 16a]
Result: 14400

Request: Test system PC-3; read-out GI50; what value for Clc1ccc(Nc2nnc(COc3ccccc3)c3ccccc23)cc1 [Compound 17a] ?
Result: 1300

Request: Give the reported GI50 for O=C(Nc1ccc(Cl)cc1)Nc1ccc(Nc2nncc3ccccc23)cc1 [Compound 6b] (system: PC-3).
Result: 2320
